Test system: Staphylococcus aureus (BAA-1717)
Experiment: Checkerboard combination / MIC assay with S. aureus BAA-1717 (MRSA)
Format: cell-based
Conditions: Ramizol 0.125 μg/mL; S. aureus ATCC BAA-1717
REPORTED METRIC: MIC of antibiotic in combination with Ramizol (µg/mL)
All answers are understood in µg/mL, so give the number only.

- COMPOUND: "C/C(=C\\C(=O)OCCCCCCCCC(=O)O)C[C@@H]1OC[C@H](C[C@@H]2O[C@H]2[C@@H](C)[C@H](C)O)[C@@H](O)[C@H]1O [Mupirocin]"
  MEASURED NUMBER: 0.5
- COMPOUND: "CO/N=C(\\C(=O)N[C@@H]1C(=O)N2C(C(=O)[O-])=C(C[N+]3(C)CCCC3)CS[C@H]12)c1csc(N)n1 [Cefepime]"
  MEASURED NUMBER: 128

Next item in the queue.
Given the entry CC(=O)NC[C@H]1CN(c2ccc(N3CCOCC3)c(F)c2)C(=O)O1 [Linezolid] , report its measured MIC of antibiotic in combination with Ramizol.
1

----------
Listing: mean FICI of combination with Chlopam of selected compounds
Tested on: Staphylococcus aureus (ATCC 29213)
Experiment: Checkerboard combination / MIC assay with S. aureus ATCC 29213
Type: cell-based
Conditions: labelled antibiotic + Chlopam; mean of all pairwise combinations; S. aureus ATCC 29213
The answer should be written as a number, with no unit following it.

Illustrative cases are given below, each with its answer.
- COMPOUND SMILES: "Cc1onc(-c2ccccc2)c1C(=O)N[C@@H]1C(=O)N2[C@@H]1SC(C)(C)[C@@H]2C(=O)O"
  mean FICI of combination with Chlopam: 1.0
- COMPOUND SMILES: "CCCCCCCCCC(=O)N[C@@H](Cc1c[nH]c2ccccc12)C(=O)N[C@H](CC(N)=O)C(=O)N[C@@H](CC(=O)O)C(=O)N[C@@H]1C(=O)NCC(=O)N[C@@H](CCCN)C(=O)N[C@@H](CC(=O)O)C(=O)N[C@H](C)C(=O)N[C@@H](CC(=O)O)C(=O)NCC(=O)N[C@H](CO)C(=O)N[C@@H]([C@H](C)CC(=O)O)C(=O)N[C@@H](CC(=O)c2ccccc2N)C(=O)O[C@@H]1C"
  mean FICI of combination with Chlopam: 1.1
- COMPOUND SMILES: "CC(=O)NC[C@H]1CN(c2ccc(N3CCOCC3)c(F)c2)C(=O)O1"
  mean FICI of combination with Chlopam: 0.9

Okay, next one:
Param readout= mean FICI of combination with Chlopam; system= Staphylococcus aureus (ATCC 29213); entry= C/C(=C\C(=O)OCCCCCCCCC(=O)O)C[C@@H]1OC[C@H](C[C@@H]2O[C@H]2[C@@H](C)[C@H](C)O)[C@@H](O)[C@H]1O ; returns value.
1.1

----------
System: Staphylococcus aureus (ATCC 29213)
Test: Checkerboard combination / MIC assay with S. aureus ATCC 29213
Format: cell-based
Settings: labelled antibiotic + Chlopam; mean of all pairwise combinations; S. aureus ATCC 29213
REPORTED METRIC: mean FICI of combination with Chlopam
Respond using a number only.

- COMPOUND: "CN[C@H](CC(C)C)C(=O)N[C@H]1C(=O)N[C@@H](CC(N)=O)C(=O)N[C@H]2C(=O)N[C@H]3C(=O)N[C@H](C(=O)N[C@H](C(=O)O)c4cc(O)cc(O)c4-c4cc3ccc4O)[C@H](O)c3ccc(c(Cl)c3)Oc3cc2cc(c3O[C@@H]2O[C@H](CO)[C@@H](O)[C@H](O)[C@H]2O[C@H]2C[C@](C)(N)[C@H](O)[C@H](C)O2)Oc2ccc(cc2Cl)[C@H]1O"
  MEASURED NUMBER: 1.0

For the next question, use this compound.
Quick one: mean FICI of combination with Chlopam of CO/N=C(\C(=O)N[C@@H]1C(=O)N2C(C(=O)[O-])=C(C[N+]3(C)CCCC3)CS[C@H]12)c1csc(N)n1 [Cefepime] ?
1.1

----------
Let's look at some molecules and their measured MIC of antibiotic in combination with Ramizol.
System: Staphylococcus aureus (BAA-1717)
Assay: Checkerboard combination / MIC assay with S. aureus BAA-1717 (MRSA)
Type: cell-based
Details: Ramizol 0.03125 μg/mL; S. aureus ATCC BAA-1717
# unit: µg/mL | format: bare number

These solved cases illustrate the format of a correct answer.
- COMPOUND SMILES: "CCCCCCCCCC(=O)N[C@@H](Cc1c[nH]c2ccccc12)C(=O)N[C@H](CC(N)=O)C(=O)N[C@@H](CC(=O)O)C(=O)N[C@@H]1C(=O)NCC(=O)N[C@@H](CCCN)C(=O)N[C@@H](CC(=O)O)C(=O)N[C@H](C)C(=O)N[C@@H](CC(=O)O)C(=O)NCC(=O)N[C@H](CO)C(=O)N[C@@H]([C@H](C)CC(=O)O)C(=O)N[C@@H](CC(=O)c2ccccc2N)C(=O)O[C@@H]1C"
  MEASURED NUMBER: 0.5
- COMPOUND SMILES: "CC(=O)NC[C@H]1CN(c2ccc(N3CCOCC3)c(F)c2)C(=O)O1"
  MEASURED NUMBER: 1

Turning now to a further molecule:
Fill in: MIC of antibiotic in combination with Ramizol of CN[C@H](CC(C)C)C(=O)N[C@H]1C(=O)N[C@@H](CC(N)=O)C(=O)N[C@H]2C(=O)N[C@H]3C(=O)N[C@H](C(=O)N[C@H](C(=O)O)c4cc(O)cc(O)c4-c4cc3ccc4O)[C@H](O)c3ccc(c(Cl)c3)Oc3cc2cc(c3O[C@@H]2O[C@H](CO)[C@@H](O)[C@H](O)[C@H]2O[C@H]2C[C@](C)(N)[C@H](O)[C@H](C)O2)Oc2ccc(cc2Cl)[C@H]1O is ___
1
